All values here come from patent US8822485B2.

biological target: UniProtKB P56817
Sequence (P56817 46-501, species assumed): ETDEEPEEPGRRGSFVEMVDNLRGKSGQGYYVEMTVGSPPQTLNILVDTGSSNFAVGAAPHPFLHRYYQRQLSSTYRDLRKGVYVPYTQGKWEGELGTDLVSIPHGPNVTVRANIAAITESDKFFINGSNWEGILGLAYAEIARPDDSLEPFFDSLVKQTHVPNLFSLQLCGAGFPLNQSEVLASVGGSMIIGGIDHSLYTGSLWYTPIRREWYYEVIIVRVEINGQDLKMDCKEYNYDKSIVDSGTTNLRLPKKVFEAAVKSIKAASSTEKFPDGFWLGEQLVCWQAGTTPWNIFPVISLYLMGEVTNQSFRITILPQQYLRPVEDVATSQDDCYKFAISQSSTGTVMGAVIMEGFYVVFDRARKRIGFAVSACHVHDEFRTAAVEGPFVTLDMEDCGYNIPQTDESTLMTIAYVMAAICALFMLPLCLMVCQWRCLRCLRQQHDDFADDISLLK
pIC50: −log10 of the molar value.
quantity: pIC50

What value of pIC50 has been recorded for this entry: Cc1ccccc1-c1ccc2nc(N)c(C3CCCC3c3cc(C4CCCC4)ncn3)cc2c1 (centres unmarked)
> 7.00

// repeat for Cc1ccccc1-c1ccc2nc(N)c(CCc3cccc(C(F)(F)F)c3)cc2c1 and report
5.30 to 6.00

// repeat for CCc1cc(C(C)Cc2cc3cc(-c4ccccc4C)ccc3nc2N)ncn1 (centres unmarked) and report
6.00 to 7.00

// repeat for Cc1ccccc1-c1ccc2nc(N)c(CCc3cncc(CC(C)(C)C)c3)cc2c1 and report
6.00 to 7.00

Kindly review the next molecule as well.
What value of pIC50 has been recorded for this entry: Cc1ccccc1-c1ccc2nc(N)c(CCc3ccccn3)cc2c1
5.30 to 6.00
